# test.protocol: Confirmation and Secondary Assay for Modulators of Hemoglobin Beta Chain Splicing at IVS2 705 locus (AID 930);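 note: HeLa cells stably expressing the EGFP-705 splicing reporter; GFP fluorescence per well restored by corrected splicing of the IVS2-705 intron in EGFP; % of control where 0% means no effect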
# condition.notes: HeLa EGFP-705 splicing reporter, GFP fluorescence, 48 h; series mostly up to 46.1 µM
Active and inactive are the calls of the source. Calls come from the whole dose curve; as a rule, active = well fitted activation curve with a large enough effect; inconclusive = small, poorly fitted or top-dose-only effect; inactive = flat fitted curve, though single readings scatter.
reported.property: outcome

molecule=CCCN(CCC)S(=O)(=O)c1ccc(C(=O)O)cc1 result=inactive
molecule=CCN(CC)CCNC(=O)COc1ccc(OC)cc1 result=inactive
molecule="CCCCC(CC)CN1CN(CC(CC)CCCC)CC(C)(N)C1 (stereo not drawn)" result=inactive
molecule=O=C(O)CCC(=O)Nc1ccc(S(=O)(=O)Nc2nccs2)cc1 result=inactive
molecule="CCC(Cc1c(I)cc(I)c(N)c1I)C(=O)O (stereo not drawn)" result=inactive
molecule=Nc1ccc(C(=O)NCC(=O)O)cc1 result=inactive
molecule=Cc1cc(-c2ccccc2)nnc1NCCN1CCOCC1 result=inactive
molecule=CCCc1ncc(C[n+]2ccccc2C)c(N)n1 result=inactive
molecule=CCN(CC)CCNC(=O)c1cc(Br)c(N)cc1OC result=inactive
molecule="CN(C)CCOC(c1ccc(Cl)cc1)c1ccccn1 (stereo not drawn)" result=inactive
molecule=COc1ccc(C(=O)c2ccccc2O)c(O)c1 result=inactive
molecule=CC(=O)NCCCCCC(=O)O result=inactive
molecule=CCOC(=O)c1ccc(N)cc1 result=inactive

====

# Test system: CP211
# test.protocol: qHTS profiling for inhibitors of Plasmodium falciparum proliferation (AID 504749); note: nearly all actives have a fitted effect of over 60% in size
# condition.notes: P. falciparum in erythrocytes, SYBR Green DNA, 72 h; series mostly up to 28.7 µM
Records with an inconclusive call do not appear. Calls of active or inactive are those of the source. The call rests on the fitted dose curve; in most records, active means well fitted inhibition curve with a large enough effect; inconclusive means small, poorly fitted or top-dose-only effect; inactive means flat fitted curve, though single readings scatter.
Outcomes: 1 (yes) = active, 0 (no) = inactive

compound=N=C(N)N1CCc2ccccc2C1 classification="0 (no)"
compound=Nc1nc(-c2ccccc2)c(Br)c(=O)[nH]1 classification="0 (no)"
compound="CCCCCCCCNC(C)C(O)c1ccc(SC(C)C)cc1 (stereo unspecified)" classification="1 (yes)"
compound=CCCCCCCCCCCCCC[N+](C)(C)Cc1ccccc1 classification="1 (yes)"
compound=CC(C)Cn1cnc2c1c(=O)n(C)c(=O)n2C classification="0 (no)"
compound=CCCCCCCCCCCCCC(=O)OC(C)C classification="0 (no)"
compound=NCCNc1cccc2ccccc12 classification="0 (no)"
compound=CCOC(=O)C(C#N)=C(c1ccccc1)c1ccccc1 classification="0 (no)"
compound=OCc1ccccn1 classification="0 (no)"
compound=COc1cc(C)nc(-n2nc(C)cc2OC)n1 classification="0 (no)"
compound=COc1cc(C(=S)N2CCOCC2)ccc1O classification="0 (no)"

====

# test.protocol: qHTS of pediatric cancer cell lines to identify multiple opportunities for drug repurposing: Primary screen for Saos-2 cells (AID 1347097); note: nearly all actives have a fitted effect of over 40% in size
# condition.notes: Saos-2 viability, CellTiter-Glo ATP luminescence, 48 h; series mostly up to 46 µM
Results filed as inconclusive are left out. Calls of active or inactive are those of the source. Calls come from the whole dose curve; as a rule, active = well fitted cell-killing curve with a large enough effect; inconclusive = small, poorly fitted or top-dose-only effect; inactive = no such curve, though single readings can be large or run the other way.
Outcomes: label 1 (active), label 0 (inactive)

compound=C/C=C/C=N/NC(=O)c1ccncc1 classification="label 0"
compound=CCC(CC)(CC(=O)Nc1cccc(/C=C/c2nc(C3CCC3)cs2)c1)C(=O)O classification="label 0"
compound=N[C@H](C(=O)O)[C@@H](O)c1ccc(O)c(O)c1 classification="label 0"
compound=Cc1cc(NS(=O)(=O)c2ccc(N)cc2)nc(C)n1 classification="label 0"
compound=CN(C)C(=O)Nc1ccc(Cl)c(Cl)c1 classification="label 0"
compound=CCCCCCCCCCCCCCC[C@H](O)[C@@H](N)CO classification="label 0"
compound=CCCCNC(=O)NS(=O)(=O)c1ccc(N)cc1 classification="label 0"
compound=O[C@@H](c1cc(C(F)(F)F)nc2c(C(F)(F)F)cccc12)[C@H]1CCCCN1 classification="label 1"
compound=CCCCCCCCCCCCCC[N+](C)(C)Cc1ccccc1 classification="label 1"
compound="CCN1CCCC(OC(=O)C(c2ccccc2)c2ccccc2)C1 (configuration not stated)" classification="label 0"
compound=CCCCN=C(N)N=C(N)N classification="label 0"
compound=C/C=C/c1ccc(O)c(OC)c1 classification="label 0"

====

# Test system: CP201
# test.protocol: qHTS profiling for inhibitors of Plasmodium falciparum proliferation (AID 504749); note: nearly all actives have a fitted effect of over 60% in size
# condition.notes: P. falciparum in erythrocytes, SYBR Green DNA, 72 h; series mostly up to 28.7 µM
Inconclusive results are not listed. Active and inactive are the calls of the source. Calls come from the whole dose curve; as a rule, active = well fitted inhibition curve with a large enough effect; inconclusive = small, poorly fitted or top-dose-only effect; inactive = flat fitted curve, though single readings scatter.
Outcomes: true (active), false (inactive)

compound=O=S(=O)(O)c1ccc(O)cc1 target_desc=CP201 classification=false
compound="CC(=O)Nc1ccc(OCC(O)CNC(C)C)cc1 (configuration not stated)" target_desc=CP201 classification=false
compound=NCCNC(=O)c1ccc(Cl)cn1 target_desc=CP201 classification=false
compound=CC(=O)Nc1ccc(S(=O)(=O)Nc2ccc([N+](=O)[O-])cc2)cc1 target_desc=CP201 classification=false
compound="C[N+]1(CC2COC(c3ccccc3)(C3CCCCC3)O2)CCCCC1 (configuration not stated)" target_desc=CP201 classification=true
compound="Cc1cc(C)cc(OCC2CNC(=O)O2)c1 (configuration not stated)" target_desc=CP201 classification=false
compound=C#C[C@]1(O)CC[C@H]2[C@@H]3CCc4cc(OC)ccc4[C@H]3CC[C@@]21C target_desc=CP201 classification=false
compound=OC[C@H]1O[C@@H]2O[C@H]3[C@H](O)[C@@H](O)[C@@H](O[C@H]4[C@H](O)[C@@H](O)[C@@H](O[C@H]5[C@H](O)[C@@H](O)[C@@H](O[C@H]6[C@H](O)[C@@H](O)[C@@H](O[C@H]7[C@H](O)[C@@H](O)[C@@H](O[C@H]8[C@H](O)[C@@H](O)[C@@H](O[C@H]1[C@H](O)[C@H]2O)O[C@@H]8CO)O[C@@H]7CO)O[C@@H]6CO)O[C@@H]5CO)O[C@@H]4CO)O[C@@H]3CO target_desc=CP201 classification=false
compound=CCOc1cc(OCC)c(C(=O)CCC(=O)O)cc1OCC target_desc=CP201 classification=false
compound=O=C(O)P(=O)(O)O target_desc=CP201 classification=false
compound=Nc1ccc(S(=O)(=O)Nc2cnc3ccccc3n2)cc1 target_desc=CP201 classification=false
compound=c1ccc(-c2nc[nH]c2-c2ccccc2)cc1 target_desc=CP201 classification=false

====

# target.desc: Protein phosphatase 1D (Homo sapiens)
# test.protocol: RapidFire Mass Spectrometry qHTS Assay for Modulators of WT P53-Induced Phosphatase 1 (WIP1) (AID 1347424);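 note: amount of dephosphorylated VEPPL-S-QETFS peptide product formed by WIP1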
# condition.notes: WIP1 dephosphorylation of phosphopeptide, RapidFire MS; series mostly up to 63 µM
Records with an inconclusive call do not appear. Calls of active or inactive are those of the source. Calls come from the whole dose curve; as a rule, active = well fitted inhibition curve with a large enough effect; inconclusive = small, poorly fitted or top-dose-only effect; inactive = no such curve, though single readings can be large or run the other way.
Outcomes: active, inactive

compound=CCOC(=O)C(C#N)=C(c1ccccc1)c1ccccc1 classification=inactive
compound=CCCCCCCCCCCCOCCOCCOCCOCCOCCOCCOCCOCCOCCO classification=inactive
compound=Cc1nc(-c2ccc(Cl)cc2)oc1COC(C)(C)C(=O)O classification=inactive
compound="CC(C(=O)O)c1cccc(Oc2ccccc2)c1 (centres undefined)" classification=inactive
compound=O=C(O)P(=O)(O)O classification=inactive
compound=O=C1[C@H](CC[C@H](O)c2ccc(F)cc2)[C@@H](c2ccc(O)cc2)N1c1ccc(F)cc1 classification=inactive
compound=C=C[C@@]1(C)CC(=O)[C@]2(O)[C@@]3(C)[C@@H](O)CCC(C)(C)[C@@H]3[C@H](O)[C@H](OC(C)=O)[C@@]2(C)O1 classification=inactive
compound=CNCCCCOc1ccccc1Cc1ccccc1 classification=inactive
compound=O=C(CCCN1CC=C(n2c(=O)[nH]c3ccccc32)CC1)c1ccc(F)cc1 classification=inactive
compound=CC(=O)Nc1ccc(CC(=O)O)cc1 classification=inactive
compound=CCCCc1cc2ccccc2c(OCCN(C)C)n1 classification=inactive
compound=Cc1ncc(CO)c(C=O)c1O classification=inactive
compound=CCCCCCCCCCCCCC[N+](C)(C)Cc1ccccc1 classification=inactive
compound="CC(O)Cn1cnc2c1c(=O)n(C)c(=O)n2C (centres undefined)" classification=inactive
compound=CCOC(=O)[C@H](CCc1ccccc1)N[C@@H](C)C(=O)N1[C@H](C(=O)O)C[C@@H]2CCC[C@@H]21 classification=inactive
compound=CN(C)C(=O)Nc1ccc(Cl)c(Cl)c1 classification=inactive
compound="CC(C)NCC(O)c1ccc2ccccc2c1 (centres undefined)" classification=inactive
compound=Nc1ccc(S(=O)(=O)NCc2ccccc2)cc1 classification=inactive
compound=O=C(Nc1cccc(C2=NCCN2)c1)Nc1cccc(C2=NCCN2)c1 classification=inactive
compound=COc1ccc(/C=N/NC(=O)c2ccncc2)cc1OC classification=inactive
compound=CC(C)Cn1cnc2c1c(=O)n(C)c(=O)n2C classification=inactive
compound="CCCCC(CC)COC(=O)/C=C/c1ccc(OC)cc1 (centres undefined)" classification=inactive
compound=O=c1[nH]c(=O)n([C@H]2C[C@H](O)[C@@H](CO)O2)cc1F classification=inactive
compound=OCc1ccccn1 classification=inactive
compound=CN1CCN(c2c(F)cc3c(=O)c(C(=O)O)cn4c3c2SCC4)CC1 classification=inactive
compound=NS(=O)(=O)Cc1noc2ccccc12 classification=inactive
compound=O=C(O)c1ccc(S(=O)(=O)N(Cl)Cl)cc1 classification=inactive
compound="CC[N+](C)(CC)CCOC(=O)C(O)(c1ccccc1)C1CCCCC1 (centres undefined)" classification=inactive
compound=C=C[C@H]1CN2CC[C@H]1C[C@@H]2[C@@H](O)c1ccnc2ccc(OC)cc12 classification=inactive
compound="Cc1cc2c(OCC(CNC(C)(C)C)OC(=O)c3ccccc3)cccc2[nH]1 (centres undefined)" classification=inactive
compound=CC(C)Cc1ccc(CC(=O)O)cc1 classification=inactive
compound=CCc1cc(Cl)c(OC)c(C(=O)NC[C@@H]2CCCN2CC)c1O classification=inactive
compound=CC(=O)N[C@@H](CCC(=O)O)C(=O)O classification=inactive
compound="O=C(Nc1ccccc1)OCC(CN1CCCCC1)OC(=O)Nc1ccccc1 (centres undefined)" classification=inactive
compound=C#C[C@]1(O)CC[C@H]2[C@@H]3CCc4cc(OC)ccc4[C@H]3CC[C@@]21C classification=inactive
compound="COC(=O)C(c1ccccc1Cl)N1CCc2sccc2C1 (centres undefined)" classification=inactive
compound=Oc1ccc(Cl)cc1Cc1cc(Cl)ccc1O classification=active
compound=COc1cc(O)c(C(=O)c2ccccc2)cc1S(=O)(=O)O classification=inactive
compound=CNCCc1ccccn1 classification=inactive
compound=NC(=O)c1ccccc1O classification=inactive
compound=O=[N+]([O-])c1ccc(/C=N\O)o1 classification=inactive
compound=CC(C)=CCOc1ccc(/C=C/C(=O)c2ccc(OCC=C(C)C)cc2OCC(=O)O)cc1 classification=inactive
compound=C#C[C@]1(O)CC[C@H]2[C@@H]3CCC4=CC(=O)CC[C@@H]4[C@H]3CC[C@@]21CC classification=inactive
compound=CN1CCC[C@@H]1CCO[C@](C)(c1ccccc1)c1ccc(Cl)cc1 classification=inactive
